System: Escherichia coli TOP10;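 further: peptides expressed intracellularly from a pBAD plasmid library in pooled LB shake-flask culture, induced with 0.3% L-arabinose, DNA abundance read by NGS, three biological replicates, DESeq2 with apeglm shrinkage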
Assay Protocol: shrunken log2 fold change of peptide-encoding DNA abundance (4.5 h post-induction vs induction); higher = less antimicrobial activity (less host growth inhibition)
Recorded Conditions: time post-induction: 4.5 h; library: site-saturation at positions 5, 18, 19, 20
Field: class. Source value: shrunken log2 fold change. Ranges: lower level (below -0.2), middle level (-0.2 to below 0.03), upper level (0.03 or more)

{"columns": ["Seq", "Assigned Class"],
 "data": [
  ["RRIRSRPPRLPRPRPRPCDCPRP", "lower level"],
  ["RRIRLRPPRLPRPRPRPYTPPRP", "lower level"],
  ["RRIRARPPRLPRPRPRPKKCPRP", "middle level"],
  ["RRIRTRPPRLPRPRPRPNAWPRP", "upper level"],
  ["RRIRCRPPRLPRPRPRPITVPRP", "lower level"],
  ["RRIRMRPPRLPRPRPRPNGCPRP", "upper level"],
  ["RRIRCRPPRLPRPRPRPEVLPRP", "upper level"],
  ["RRIRQRPPRLPRPRPRPWVWPRP", "upper level"],
  ["RRIRNRPPRLPRPRPRPDSCPRP", "middle level"],
  ["RRIRDRPPRLPRPRPRPFTPPRP", "lower level"],
  ["RRIRVRPPRLPRPRPRPPHKPRP", "upper level"],
  ["RRIRWRPPRLPRPRPRPHNHPRP", "lower level"],
  ["RRIRCRPPRLPRPRPRPQHIPRP", "lower level"],
  ["RRIRPRPPRLPRPRPRPWREPRP", "middle level"],
  ["RRIRGRPPRLPRPRPRPMTAPRP", "upper level"],
  ["RRIRIRPPRLPRPRPRPCLEPRP", "lower level"],
  ["RRIRARPPRLPRPRPRPLSKPRP", "middle level"],
  ["RRIRTRPPRLPRPRPRPKVNPRP", "middle level"],
  ["RRIRGRPPRLPRPRPRPRMDPRP", "upper level"],
  ["RRIRVRPPRLPRPRPRPTVKPRP", "upper level"],
  ["RRIRTRPPRLPRPRPRPRLSPRP", "middle level"],
  ["RRIRHRPPRLPRPRPRPWNYPRP", "lower level"],
  ["RRIRQRPPRLPRPRPRPVATPRP", "middle level"],
  ["RRIRGRPPRLPRPRPRPRDVPRP", "upper level"],
  ["RRIRVRPPRLPRPRPRPYDLPRP", "middle level"],
  ["RRIRYRPPRLPRPRPRPLKDPRP", "middle level"],
  ["RRIRCRPPRLPRPRPRPWSAPRP", "lower level"],
  ["RRIRWRPPRLPRPRPRPGWQPRP", "upper level"],
  ["RRIRFRPPRLPRPRPRPDLIPRP", "middle level"],
  ["RRIRVRPPRLPRPRPRPGASPRP", "upper level"],
  ["RRIRLRPPRLPRPRPRPIYQPRP", "lower level"],
  ["RRIRHRPPRLPRPRPRPDRIPRP", "lower level"],
  ["RRIRKRPPRLPRPRPRPRALPRP", "upper level"],
  ["RRIRFRPPRLPRPRPRPWVMPRP", "lower level"],
  ["RRIRCRPPRLPRPRPRPIHMPRP", "upper level"],
  ["RRIRERPPRLPRPRPRPNCLPRP", "lower level"],
  ["RRIRWRPPRLPRPRPRPWPAPRP", "upper level"],
  ["RRIRARPPRLPRPRPRPSMIPRP", "middle level"],
  ["RRIRRRPPRLPRPRPRPDQYPRP", "middle level"],
  ["RRIRCRPPRLPRPRPRPCYYPRP", "lower level"],
  ["RRIRLRPPRLPRPRPRPRHTPRP", "lower level"],
  ["RRIRIRPPRLPRPRPRPIMRPRP", "upper level"],
  ["RRIRHRPPRLPRPRPRPILIPRP", "middle level"],
  ["RRIRDRPPRLPRPRPRPDVWPRP", "upper level"],
  ["RRIRFRPPRLPRPRPRPDNTPRP", "lower level"],
  ["RRIRGRPPRLPRPRPRPENSPRP", "upper level"],
  ["RRIRGRPPRLPRPRPRPFYSPRP", "middle level"],
  ["RRIRLRPPRLPRPRPRPFYRPRP", "lower level"],
  ["RRIRARPPRLPRPRPRPANHPRP", "middle level"],
  ["RRIRYRPPRLPRPRPRPNGIPRP", "middle level"],
  ["RRIRYRPPRLPRPRPRPKENPRP", "middle level"],
  ["RRIRARPPRLPRPRPRPCIEPRP", "upper level"],
  ["RRIRLRPPRLPRPRPRPYKSPRP", "upper level"],
  ["RRIRTRPPRLPRPRPRPQHNPRP", "lower level"],
  ["RRIRGRPPRLPRPRPRPWNFPRP", "lower level"],
  ["RRIRRRPPRLPRPRPRPKNLPRP", "middle level"]
]}
